All figures here come from PubChem BioAssay (EPA / NIEHS).

# Read-out: Phosphatase and tensin (PTEN), PTEN (gene 5728)
# RUN_DESCRIPTION: LTEA_HepaRG_PTEN: Life Technologies and Expression Analysis (LTEA) Assay for Phosphatase and tensin (PTEN) using HepaRG (AID 2283523)
# EXPERIMENTAL_CONTEXT: mRNA level, 48 h; actives raise or lower the signal
Activity calls are given as the source filed them. How the source made its calls: active means hit-call score of the fitted dose curve at least 0.9, where 1 is the maximum; inactive means score below 0.9.
Choose one outcome from this list and give only that: yes (1) = active, no (0) = inactive

**Query** How was CC/C(=C(/CC)c1ccc(O)cc1)c1ccc(O)cc1 classified in this test?
**Result** yes (1)

**Query** Would you mind telling me which call this test gave Cc1ccc(C(C)C)cc1 ?
**Result** no (0)

**Query** Tell me the assay call for c1ccc2n[nH]nc2c1 please.
**Result** no (0)

**Query** Tell me the assay call for O=C(O)Cn1c(=O)n(Cc2ccc(Br)cc2F)c(=O)c2ccc(Cl)cc21 please.
**Result** no (0)

**Query** I'd appreciate the recorded outcome for CCCCCCCCCC(=O)O from this test.
**Result** no (0)

**Query** Status in this test for CC(=O)N1CCN(c2ccc(OC[C@H]3CO[C@](Cn4ccnc4)(c4ccc(Cl)cc4Cl)O3)cc2)CC1 ?
**Result** yes (1)

**Query** I'd appreciate the recorded outcome for CN(C)c1ccc(C(=C2C=CC(=[N+](C)C)C=C2)c2ccc(N(C)C)cc2)cc1 from this test.
**Result** yes (1)

**Query** # lookup: test call for CCCCCCCCCCCCO
**Result** no (0)

**Query** Given CCO[Si](CCCNC(N)=O)(OCC)OCC , state the outcome it received in this test.
**Result** no (0)

**Query** What did this assay record as the result for CCCCCCCCOC(=O)c1cc(O)c(O)c(O)c1 ?
**Result** no (0)

**Query** What call does the record list for C[C@]12CC[C@@H]3c4ccc(O)cc4CC[C@H]3[C@@H]1CC[C@H]2O ?
**Result** no (0)

**Query** Please indicate how the test categorized Oc1ccccc1 .
**Result** no (0)

**Query** Could you please tell me the result logged for CC(C)(c1cc(Br)c(O)c(Br)c1)c1cc(Br)c(O)c(Br)c1 in this assay?
**Result** yes (1)

**Query** Fill in: this test's call for O=c1[nH]sc2ccccc12 is ___
**Result** no (0)

**Query** Short answer needed: outcome of this test for Cc1oc2c(NC(=O)c3c(Cl)cccc3Cl)cccc2c1C(C)(C)O ?
**Result** no (0)

**Query** Per the assay record, what outcome was assigned to Cc1cc(F)ccc1-c1cc(N2CC[C@@H](O)[C@H]2CO)ncc1N(C)C(=O)C(C)(C)c1cc(C(F)(F)F)cc(C(F)(F)F)c1 ?
**Result** yes (1)

**Query** What is the recorded call for this compound in the test? NC(=O)c1nc(-c2cccc(-c3cc(F)ccc3OCC(F)(F)C(F)(F)F)c2)n[nH]1
**Result** yes (1)

**Query** Please let me know the test result on file for Clc1ccccc1C(c1ccccc1)(c1ccccc1)n1ccnc1 .
**Result** yes (1)

**Query** Please share the test call associated with CCCCCCCCCCCC[N+](C)(C)C .
**Result** no (0)

**Query** For this compound, state the assay outcome: O=c1ccc2ccccc2o1
**Result** no (0)

**Query** State the result this test recorded for CCCCCCCCCCCO .
**Result** no (0)

**Query** Please state the recorded outcome for this compound: CC[C@H](NC(=O)c1cc(F)ccc1NS(=O)(=O)c1cccc2cccnc12)c1ccccc1
**Result** no (0)

**Query** What was the test verdict on COc1cc(C(=O)NC2CCN(C)CC2)ccc1Nc1ncc2c(n1)N(C1CCCC1)CC(F)(F)C(=O)N2C ?
**Result** yes (1)

**Query** What did the test return for O=C=NCCCCCCN=C=O ?
**Result** no (0)
